Reference source: PubChem BioAssay (NCI)

test system: T-47D breast; experiment: NCI tumour cell line growth inhibition, 48 h
property name: TGI

Look over these answered cases.
{"columns": ["compound", "TGI"],
 "data": [
  ["N#CC(C#N)=Cc1c[nH]c(=O)[nH]c1=O", "> 100 µM"],
  ["O=c1ncc(I)cn1C1CC(O)C(CO)O1 (centres undefined)", "> 3250 µM"]
]}

## Task Please give the documented TGI of N#CC1CCCC2SC(F)(F)C(F)(F)C12 (centres undefined)
## Result > 100 µM

## Task Please give the documented TGI of "Cn1ccc2c1SSSSS2"
## Result 47.6 µM

## Task Please give the documented TGI of O=S1OC[C@H](CCCl)O1 (some centres undefined)
## Result > 100 µM

## Task Please give the documented TGI of "COc1ccc(C(=O)c2sc3nc4c(cc3c2N)CCCC4)cc1OC"
## Result 8.95 µM

## Task Please give the documented TGI of "Cc1cc(=O)n2nnc3c4ccccc4ccc3n12"
## Result 3.14 µM

## Task Please give the documented TGI of O=C1C(Cl)C2(CC(/C=C/c3cccs3)=NN2c2cccc(S(=O)(=O)O)c2)N1c1nc2ccccc2s1 (centres undefined)
## Result > 100 µM

## Task Please give the documented TGI of "Cc1[nH]c(=O)nc2nc3ccc(Cl)cc3c(N(CCO)CCO)c12"
## Result > 100 µM

----------
system: SNB-75 CNS; test: NCI tumour cell line growth inhibition, 48 h
property name: TGI (µM)
# unit: µM | format: bare number

{"columns": ["compound smiles", "TGI / µM"],
 "data": [
  ["Cc1nn2c(/C=N/N=C(N)N)c(-c3ccc(Cl)c([N+](=O)[O-])c3)nc2s1", 2.94]
]}

Now for another entry.
## Task Please give the documented TGI of "O=C1/C=C/[C@@H](O)[C@@H]2C[C@@H](O)C[C@H]2/C=C/CCC[C@H](CCc2ccccc2)O1"
## Result 33.8

----------
tested on: NCI-H522 lung; test: NCI tumour cell line growth inhibition, 48 h
Recorded TGI by entry

Look over these answered cases.
{"columns": ["compound", "property name", "result"],
 "data": [
  ["C=CCc1cccc2cc(C(=O)NC3CCCCC3)c(=N)oc12", "TGI", "> 100 µM"],
  ["C/C(=C\\COP(=O)(O)OP(=O)(O)O)CCCOCc1ccccc1", "TGI", "> 100 µM"],
  ["COc1ccc2c(c1)[n+](=O)c(C(=O)CC(=O)C(=O)Nc1cccc(Cl)c1C)c(C)n2[O-]", "TGI", "58 µM"]
]}

## Task Please give the documented TGI of "Nc1nc2cc(O)ccc2n2cc3c(F)cccc3c12"
## Result > 100 µM

## Task Please give the documented TGI of "Cn1nc(-c2cccc(-c3nn(C)c(=NCCO)s3)n2)sc1=NCCO"
## Result > 100 µM

## Task Please give the documented TGI of "COc1cc(-c2nc3ccc(N4CCN(C)CC4)cc3[nH]2)c(OC)c2[nH]c(CO)nc12"
## Result > 100 µM

## Task Please give the documented TGI of "COc1cc(/C=C2\C(=O)Nc3ccccc32)cc(OC)c1O"
## Result 5.1 µM

## Task Please give the documented TGI of COC(=O)C(=O)C(C(=O)C(=O)Nc1ccc(OC)cc1[N+](=O)[O-])c1nc2ccc([N+](=O)[O-])cc2[nH]c1=O (centres undefined)
## Result > 100 µM

## Task Please give the documented TGI of "OCCN(CCO)c1ccc2c(-c3ccccc3)cc(N(CCO)CCO)nc2n1"
## Result > 100 µM

## Task Please give the documented TGI of "c1ccc2c(c1)Oc1cccc3cccc-2c13"
## Result > 100 µM

## Task Please give the documented TGI of COC(=O)C1=C(C=O)C2C=CC1C2 (centres undefined)
## Result 61.4 µM

## Task Please give the documented TGI of O=C(OCC1OC(n2cc(C(F)(F)F)c(=O)[nH]c2=O)CC1OC(=O)c1ccc([N+](=O)[O-])cc1)c1ccc([N+](=O)[O-])cc1 (centres undefined)
## Result > 100 µM
